Data provenance: the supplement of paper PMC10126150

# System: ATP;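 note: ATP exposure 15 min at 22 °C before imaging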
# experimentDescription: switch fluorescence ratio, 500 uM ATP over buffer (Cy3 cluster intensity, sum of 5 cycles each) (fold (ratio)); higher = stronger signal-on switching upon ATP binding; sequences stand for … in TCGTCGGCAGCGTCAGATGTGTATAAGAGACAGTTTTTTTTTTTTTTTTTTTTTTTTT…TC
# testContext: aptamer strand: ATP DNA aptamer (quencher-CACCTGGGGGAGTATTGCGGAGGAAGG + anchor), 100 nM annealed; ATP concentration: 500 uM
Rule: switch fluorescence ratio under 1 gives f, otherwise t.

[[record]]
sequenceentry = "AAAAGGTTAA"
category = "f"


// inclusive: switch fluorescence ratio at least 1? input: `TACTTTTATA`
t

// inclusive: switch fluorescence ratio at least 1? input: `AACCCATTTG`
t

// inclusive: switch fluorescence ratio at least 1? input: `TTTTGAAGTC`
t

// inclusive: switch fluorescence ratio at least 1? input: `AAGCTAGTAA`
f

// inclusive: switch fluorescence ratio at least 1? input: `TCCACACGCT`
t

// inclusive: switch fluorescence ratio at least 1? input: `ATGTCTTGAT`
f

// inclusive: switch fluorescence ratio at least 1? input: `TTTGTGGCTT`
t

// inclusive: switch fluorescence ratio at least 1? input: `GATAATTGAG`
t

// inclusive: switch fluorescence ratio at least 1? input: `CATGGCGGAG`
t

// inclusive: switch fluorescence ratio at least 1? input: `ACGACCTTGT`
t

// inclusive: switch fluorescence ratio at least 1? input: `ACTCGGGCTA`
t

// inclusive: switch fluorescence ratio at least 1? input: `TAATAAAATT`
t

// inclusive: switch fluorescence ratio at least 1? input: `TTCTTAGCCG`
t

// inclusive: switch fluorescence ratio at least 1? input: `AACGTAGGTA`
t

// inclusive: switch fluorescence ratio at least 1? input: `TTTGTCATCG`
t

// inclusive: switch fluorescence ratio at least 1? input: `CGTAGTAGGC`
t

----------
# Test system: ATP;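 note: ATP exposure 15 min at 22 °C before imaging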
# experimentDescription: switch fluorescence ratio, 500 uM ATP over buffer (Cy3 cluster intensity, sum of 5 cycles each) (fold (ratio)); higher = stronger signal-on switching upon ATP binding; sequences stand for … in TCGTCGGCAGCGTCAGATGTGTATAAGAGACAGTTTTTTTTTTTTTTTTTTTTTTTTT…TC
# testContext: aptamer strand: ATP DNA aptamer (quencher-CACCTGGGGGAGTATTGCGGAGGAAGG + anchor), 100 nM annealed; ATP concentration: 500 uM
reportedProperty: switch fluorescence ratio
A bare number is all that is needed in reply.

Fill in switch fluorescence ratio for record `TTACCTTAGT`
1.06

Fill in switch fluorescence ratio for record `GGGGATGGAA`
1.02

Fill in switch fluorescence ratio for record `CTGCCAGATG`
1.1

Fill in switch fluorescence ratio for record `TTGTGGGTTT`
1.05

Fill in switch fluorescence ratio for record `GCAATTGATG`
1.04

Fill in switch fluorescence ratio for record `GTTAATGGGT`
0.98

Fill in switch fluorescence ratio for record `CCTGGGGGTG`
1.14

Fill in switch fluorescence ratio for record `ATTATGACGG`
0.982

Fill in switch fluorescence ratio for record `GAGGTCGTGA`
0.975

----------
Let's look at some sequences and their measured switch fluorescence ratio.
# Test system: ATP;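 note: ATP exposure 15 min at 22 °C before imaging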
# experimentDescription: switch fluorescence ratio, 500 uM ATP over buffer (Cy3 cluster intensity, sum of 5 cycles each) (fold (ratio)); higher = stronger signal-on switching upon ATP binding; sequences stand for … in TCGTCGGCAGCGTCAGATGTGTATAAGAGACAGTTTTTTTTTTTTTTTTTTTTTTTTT…TC
# testContext: aptamer strand: ATP DNA aptamer (quencher-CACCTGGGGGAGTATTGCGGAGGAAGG + anchor), 100 nM annealed; ATP concentration: 500 uM
A bare number is all that is needed in reply.

Fill in switch fluorescence ratio for record `GTCGGGAGGA`
0.998

Fill in switch fluorescence ratio for record `GGTGAATGCG`
0.978

Fill in switch fluorescence ratio for record `TTTGAATCGG`
0.97

Fill in switch fluorescence ratio for record `GGTAGAGTAC`
1.02

Fill in switch fluorescence ratio for record `GCGGTGCGGG`
0.988

Fill in switch fluorescence ratio for record `GGTTTCGATA`
0.968

----------
# Tested on: ATP;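 note: ATP exposure 15 min at 22 °C before imaging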
# experimentDescription: switch fluorescence ratio, 500 uM ATP over buffer (Cy3 cluster intensity, sum of 5 cycles each) (fold (ratio)); higher = stronger signal-on switching upon ATP binding; sequences stand for … in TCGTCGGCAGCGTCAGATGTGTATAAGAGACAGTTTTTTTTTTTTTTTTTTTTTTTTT…TC
# testContext: aptamer strand: ATP DNA aptamer (quencher-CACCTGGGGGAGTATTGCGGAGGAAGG + anchor), 100 nM annealed; ATP concentration: 500 uM
Rule: switch fluorescence ratio under 1 gives -1, otherwise 1.

[[record]]
sequenceentry = "TTGATTAGTA"
category = -1

[[record]]
sequenceentry = "GACGTAAAAG"
category = 1

[[record]]
sequenceentry = "TGTAATGGGG"
category = -1

[[record]]
sequenceentry = "TTATTTTCAC"
category = 1

[[record]]
sequenceentry = "TATGGGTGCT"
category = 1


// inclusive: switch fluorescence ratio at least 1? input: `GAAAAAATTT`
1

// inclusive: switch fluorescence ratio at least 1? input: `TCGTAGCTGT`
1

// inclusive: switch fluorescence ratio at least 1? input: `ATTGTATGGT`
-1

// inclusive: switch fluorescence ratio at least 1? input: `TTGAGGTTA`
1

// inclusive: switch fluorescence ratio at least 1? input: `AGTTTGGTGG`
-1

----------
Let's look at some sequences and their measured switch fluorescence ratio.
# Test system: ATP;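 note: ATP exposure 15 min at 22 °C before imaging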
# experimentDescription: switch fluorescence ratio, 500 uM ATP over buffer (Cy3 cluster intensity, sum of 5 cycles each) (fold (ratio)); higher = stronger signal-on switching upon ATP binding; sequences stand for … in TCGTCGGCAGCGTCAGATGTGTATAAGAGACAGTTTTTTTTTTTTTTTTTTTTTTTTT…TC
# testContext: aptamer strand: ATP DNA aptamer (quencher-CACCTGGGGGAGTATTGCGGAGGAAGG + anchor), 100 nM annealed; ATP concentration: 500 uM
A bare number is all that is needed in reply.

For orientation, consider the following solved cases.
[[record]]
sequenceentry = "TTTATGATGA"
reading = 0.971

[[record]]
sequenceentry = "AGAGTGTTGG"
reading = 0.985

[[record]]
sequenceentry = "TAAGTGATG"
reading = 1

[[record]]
sequenceentry = "CAGGGCGTAT"
reading = 1

[[record]]
sequenceentry = "TTAGGAAGTT"
reading = 1


Consider now this further sequence.
Fill in switch fluorescence ratio for record `CTGGTTTGGA`
1

----------
# Tested on: ATP;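 note: ATP exposure 15 min at 22 °C before imaging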
# experimentDescription: switch fluorescence ratio, 500 uM ATP over buffer (Cy3 cluster intensity, sum of 5 cycles each) (fold (ratio)); higher = stronger signal-on switching upon ATP binding; sequences stand for … in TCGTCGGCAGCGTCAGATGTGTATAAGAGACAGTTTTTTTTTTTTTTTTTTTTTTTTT…TC
# testContext: aptamer strand: ATP DNA aptamer (quencher-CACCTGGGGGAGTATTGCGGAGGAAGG + anchor), 100 nM annealed; ATP concentration: 500 uM
Rule: switch fluorescence ratio under 1 gives not satisfied, otherwise satisfied.

Answered examples (4):
[[record]]
sequenceentry = "AGTCGGAACG"
category = "not satisfied"

[[record]]
sequenceentry = "CATTGACCTT"
category = "satisfied"

[[record]]
sequenceentry = "CTCAACGATT"
category = "satisfied"

[[record]]
sequenceentry = "TTACTCAGCC"
category = "satisfied"


// inclusive: switch fluorescence ratio at least 1? input: `GATGGACCTT`
satisfied

// inclusive: switch fluorescence ratio at least 1? input: `AAAGTGGGCC`
not satisfied

// inclusive: switch fluorescence ratio at least 1? input: `AGGAATGCAA`
satisfied

// inclusive: switch fluorescence ratio at least 1? input: `GGGCAATAAC`
satisfied

// inclusive: switch fluorescence ratio at least 1? input: `AAGTCTGTTT`
satisfied

----------
# Test system: ATP;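 note: ATP exposure 15 min at 22 °C before imaging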
# experimentDescription: switch fluorescence ratio, 500 uM ATP over buffer (Cy3 cluster intensity, sum of 5 cycles each) (fold (ratio)); higher = stronger signal-on switching upon ATP binding; sequences stand for … in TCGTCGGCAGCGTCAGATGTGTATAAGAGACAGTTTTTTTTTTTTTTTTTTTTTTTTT…TC
# testContext: aptamer strand: ATP DNA aptamer (quencher-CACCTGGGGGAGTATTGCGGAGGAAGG + anchor), 100 nM annealed; ATP concentration: 500 uM
Let's look at some sequences and their measured switch fluorescence ratio.
A bare number is all that is needed in reply.

Fill in switch fluorescence ratio for record `GAGATCATTG`
1.07

Fill in switch fluorescence ratio for record `CGTTATACGG`
1.04

Fill in switch fluorescence ratio for record `ACGCAGTTCC`
1.15

Fill in switch fluorescence ratio for record `TTATCACTGG`
1

Fill in switch fluorescence ratio for record `TACAGGGGTA`
1.05

Fill in switch fluorescence ratio for record `GGCTGCAGCT`
0.992
